Measured values drawn from ChEMBL document CHEMBL3421552 for this set.

Catalogue of pIC50 readings, one per entry.
Experiment: Cytotoxic activity against human Bel7402 cells by MTT method
Conditions: Bel-7402
Scale for pIC50: -log10 of concentration given in mol/L; no unit attached.

# annotated cases, reported pIC50 shown
{"substance-smiles": "CO[C@]12CCCC[C@H]1[C@H]1O[C@H](C)[C@@H](C)c3c(O)c(O)cc(c31)O2", "pIC50": 4.98}
{"substance-smiles": "CO[C@H]1CCc2oc(=O)c3c(O)cc(C)cc3c21", "pIC50": 4.39}
{"substance-smiles": "Cc1c(O)c(O)c(Oc2cc(O)c(C)c3c2C(=O)O[C@H](C)[C@H]3C)c2c1[C@H](C)[C@@H](C)O2", "pIC50": 5.15}

## Task # query: pIC50 of entry CO[C@]1(C)C[C@H]2O[C@H](C)[C@@H](C)c3c(C)c(O)cc(c32)O1
## Result 4.33

## Task What do you have for COC(=O)c1ccc2c(=O)c3cc(O)cc(C(=O)O)c3oc2c1O ?
## Result 4.51
